# targetOrSystem: T1, Human CD137 ECD (human)
# T1 construct: also called 4-1BB
# T1 sequence (chain, as listed by the source limits assumed): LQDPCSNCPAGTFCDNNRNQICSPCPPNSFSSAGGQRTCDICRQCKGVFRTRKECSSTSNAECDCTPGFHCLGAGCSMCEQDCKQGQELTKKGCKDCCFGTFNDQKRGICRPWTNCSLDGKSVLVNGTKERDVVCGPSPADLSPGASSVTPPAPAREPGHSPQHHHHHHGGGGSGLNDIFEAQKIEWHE
# protocolNotes: single mutant vs template dBBDu183H
parameterMeasured: fold change of affinity (fold)
Give the value, in units of fold, as a plain number.

Per the record, H183/L072 VH A54Q (antibody, name in Kabat numbering, V domains shown) VH: QVQLVESGGGLVQPGRSLRLSCAASGFTFSNAWMHWVRQAPGKGLEWVAQIKDKGNQYAAYYAPSVKGRFTISRDDSKNSIYLQMNSLKTEDTAVYYCHYVHYASASTVLPAFGVDAWGQGTTVTVSS VL: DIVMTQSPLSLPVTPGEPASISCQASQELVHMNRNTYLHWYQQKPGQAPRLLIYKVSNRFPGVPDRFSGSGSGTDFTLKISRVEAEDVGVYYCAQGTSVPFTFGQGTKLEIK has fold change of affinity of 1

The binder listed as H183/L072 VH Q50E (antibody, name in Kabat numbering, V domains shown) VH: QVQLVESGGGLVQPGRSLRLSCAASGFTFSNAWMHWVRQAPGKGLEWVAEIKDKGNAYAAYYAPSVKGRFTISRDDSKNSIYLQMNSLKTEDTAVYYCHYVHYASASTVLPAFGVDAWGQGTTVTVSS VL: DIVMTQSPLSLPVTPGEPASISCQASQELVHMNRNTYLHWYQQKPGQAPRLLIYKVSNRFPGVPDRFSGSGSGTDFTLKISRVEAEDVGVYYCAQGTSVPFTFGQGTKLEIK shows fold change of affinity equal to 0.5

// fold change of affinity value for H183/L072 VH S62A (antibody, name in Kabat numbering, V domains shown) VH: QVQLVESGGGLVQPGRSLRLSCAASGFTFSNAWMHWVRQAPGKGLEWVAQIKDKGNAYAAYYAPAVKGRFTISRDDSKNSIYLQMNSLKTEDTAVYYCHYVHYASASTVLPAFGVDAWGQGTTVTVSS VL: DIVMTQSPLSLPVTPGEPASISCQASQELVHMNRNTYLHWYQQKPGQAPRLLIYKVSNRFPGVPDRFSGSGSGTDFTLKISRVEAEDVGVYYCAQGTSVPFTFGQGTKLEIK : 0.7
